test.protocol: Metabolic stability in 50% human plasma assessed as half life at pH 7.4 by RP-HPLC
Would you please tag the item Fulfilled when its half-life is 50 s or above, and Not fulfilled when it is below?

- smiles.input: "COc1ccc(C(=O)O[C@@H]2CO[C@H]3[C@@H]2OC[C@@H]3OC(=O)c2ccccc2OC(C)=O)cc1"
  category.label: "Fulfilled"
- smiles.input: "CCCCC(=O)O[C@@H]1CO[C@H]2[C@@H]1OC[C@@H]2OC(=O)c1ccccc1OC(C)=O"
  category.label: "Not fulfilled"
- smiles.input: "CC(=O)Oc1ccccc1C(=O)O[C@H]1CO[C@H]2[C@@H]1OC[C@H]2OC(=O)c1cccc(CO[N+](=O)[O-])c1"
  category.label: "Fulfilled"
- smiles.input: "CC(=O)Oc1ccccc1C(=O)O[C@H]1CO[C@H]2[C@@H]1OC[C@H]2OC(=O)c1ccc(C)cc1"
  category.label: "Fulfilled"
- smiles.input: "CC(=O)Oc1ccccc1C(=O)O[C@H]1CO[C@H]2[C@@H]1OC[C@H]2OC(=O)c1ccncc1"
  category.label: "Not fulfilled"

Let's switch to this compound now.
Data request: Would you say `CC(=O)Oc1ccccc1C(=O)O[C@H]1CO[C@H]2[C@@H]1OC[C@H]2OC(=O)c1ccccc1` shows half-life at minimum 50 s?
Data returned: Not fulfilled
